Test system: Proteus rettgeri ATCC 14505
TEST_METHOD_NOTES: in vitro antibacterial activity, standard agar dilution method
Assay type: cell-based
CONDITION_PARAMETERS: Providencia rettgeri, ATCC14505, aerobic, read-out: minimum inhibitory concentration (MIC)
ENDPOINT_NAME: MIC (µg/mL)

>>> df
                                   compound  result_value
0  CN1COc2c(-n3ccnc3)c(F)cc3c(=O)c(C(=O)O)cn1c23 [Example 56]          1.56
1  CCCN1CCN(c2c(F)cc3c(=O)c(C(=O)O)cn4c3c2OCN4C)CC1 [Example 43]          0.78
2  CCN1CCN(c2c(F)cc3c(=O)c(C(=O)O)cn4c3c2OCN4C)CC1 [Example 42]          0.39
3  CN1COc2c(N3CCC(O)C3)c(F)cc3c(=O)c(C(=O)O)cn1c23 (centres unmarked) [Example 21]          0.78
4  CC1Oc2c(N3CCNCC3)c(F)cc3c(=O)c(C(=O)O)cn(c23)N1C (centres unmarked) [Example 25]            25

====

MIC tested on Escherichia coli NIHJ JC-2: recorded values
ENDPOINT_NAME: MIC (µg/mL)

                                   molecule  result_value
0  CNC1CCN(c2c(F)cc3c(=O)c(C(=O)O)cn4c3c2OCN4C)CC1           0.2
1  CN1COc2c(N3CCNCC3)c(F)cc3c(=O)c(C(=O)O)cn1c23         0.025
2  CN1COc2c(N3CCC(N)C3)c(F)cc3c(=O)c(C(=O)O)cn1c23 (stereo not drawn)         0.013
3  CN1CCN(c2c(F)cc3c(=O)c(C(=O)O)cn4c3c2OCN4CCF)CC1           0.2
4  COC1CCN(c2c(F)cc3c(=O)c(C(=O)O)cn4c3c2OCN4C)C1 (stereo not drawn)           0.1
5  CNCC1CCN(c2c(F)cc3c(=O)c(C(=O)O)cn4c3c2OCN4C)C1 (stereo not drawn)           0.1
6  CN1COc2c(N3CCC(N)CC3)c(F)cc3c(=O)c(C(=O)O)cn1c23           0.2
7  CN1COc2c(N3CCC(N)C3)c(F)cc3c(=O)c(C(=O)OCOC(=O)C(C)(C)C)cn1c23 (stereo not drawn)          1.56
8  CN1COc2c(-n3ccnc3)c(F)cc3c(=O)c(C(=O)O)cn1c23           0.1

====

Test system: Staphylococcus aureus NR 2855
TEST_METHOD_NOTES: in vitro antibacterial activity, standard agar dilution method
Assay type: cell-based
CONDITION_PARAMETERS: NR2855; Staphylococcus aureus NR 2855; aerobic; agar dilution; read-out: minimum inhibitory concentration (MIC)
Recorded MIC values for a group of compounds are listed next.
ENDPOINT_NAME: MIC (µg/mL)

                                   compound  endpoint_name  display_unit  result_value
0  CN1COc2c(N3CCNC(c4ccccc4)C3)c(F)cc3c(=O)c(C(=O)O)cn1c23 (centres unmarked)            MIC         µg/mL          0.39
1  CN1COc2c(N3CCN(C(=O)CCC(=O)O)CC3)c(F)cc3c(=O)c(C(=O)O)cn1c23            MIC         µg/mL          12.5
2  CN1COc2c(N3CCN(CC(=O)O)CC3)c(F)cc3c(=O)c(C(=O)O)cn1c23            MIC         µg/mL          3.13
3  CN1COc2c(N3CCOCC3)c(F)cc3c(=O)c(C(=O)O)cn1c23            MIC         µg/mL        0.0065
4  CN1COc2c(N3CCN(CCO)CC3)c(F)cc3c(=O)c(C(=O)O)cn1c23            MIC         µg/mL          0.78
5  CN1COc2c(N3CCC(N)CC3)c(F)cc3c(=O)c(C(=O)O)cn1c23            MIC         µg/mL          1.56
6  CC1CN(c2c(F)cc3c(=O)c(C(=O)O)cn4c3c2OCN4C)CCN1C (centres unmarked)            MIC         µg/mL           0.1
7  CN1COc2c(N3CCC(O)CC3)c(F)cc3c(=O)c(C(=O)O)cn1c23            MIC         µg/mL          0.05

====

Tested on: Staphylococcus aureus NR 2855
TEST_METHOD_NOTES: in vitro antibacterial activity, standard agar dilution method
Assay type: cell-based
CONDITION_PARAMETERS: NR2855; Staphylococcus aureus NR 2855; aerobic; agar dilution; read-out: minimum inhibitory concentration (MIC)
Reported MIC is given for each of the following compounds.
ENDPOINT_NAME: MIC (µg/mL)

In [3]: df
Out[3]:
                                   compound                   assay_target  result_value
0  CN1COc2c(N3CCC(Cl)C3)c(F)cc3c(=O)c(C(=O)O)cn1c23 (centres unmarked) [Example 59]  Staphylococcus aureus NR 2855           0.1
1  CN1COc2c(N3CCC(O)C3)c(F)cc3c(=O)c(C(=O)O)cn1c23 (centres unmarked) [Example 21]  Staphylococcus aureus NR 2855           0.2
2  CC1Oc2c(N3CCN(C)CC3)c(F)cc3c(=O)c(C(=O)O)cn(c23)N1C (centres unmarked) [Example 26]  Staphylococcus aureus NR 2855          1.56
3  CN1COc2c(N3CCN(Cc4ccc(N)cc4)CC3)c(F)cc3c(=O)c(C(=O)O)cn1c23 [Example 53]  Staphylococcus aureus NR 2855           0.1
4  CN1COc2c(N3CCC(CN)CC3)c(F)cc3c(=O)c(C(=O)O)cn1c23 [Example 12]  Staphylococcus aureus NR 2855          0.78
5  CNCC1CCN(c2c(F)cc3c(=O)c(C(=O)O)cn4c3c2OCN4C)C1 (centres unmarked) [Example 17]  Staphylococcus aureus NR 2855           0.2
6  CN1COc2c(N3CCN(CS(=O)(=O)O)CC3)c(F)cc3c(=O)c(C(=O)O)cn1c23 [Example 52]  Staphylococcus aureus NR 2855          3.13
7  CCCN1CCN(c2c(F)cc3c(=O)c(C(=O)O)cn4c3c2OCN4C)CC1 [Example 43]  Staphylococcus aureus NR 2855          0.78

====

Test system: Proteus rettgeri ATCC 14505
TEST_METHOD_NOTES: in vitro antibacterial activity, standard agar dilution method
Format: cell-based
CONDITION_PARAMETERS: Providencia rettgeri, ATCC14505, aerobic, read-out: minimum inhibitory concentration (MIC)
ENDPOINT_NAME: MIC (µg/mL)

>>> df
                                    compound  endpoint_name  display_unit  result_value
 0  CN1COc2c(N3CCC(N)C3)c(F)cc3c(=O)c(C(=O)O)cn1c23 (stereo not shown)            MIC         µg/mL           0.1
 1  CN1COc2c(N3CCN(CCF)CC3)c(F)cc3c(=O)c(C(=O)O)cn1c23            MIC         µg/mL          1.56
 2  CN1COc2c(N3CCN(CS(=O)(=O)O)CC3)c(F)cc3c(=O)c(C(=O)O)cn1c23            MIC         µg/mL           0.2
 3  CC1CN(c2c(F)cc3c(=O)c(C(=O)O)cn4c3c2OCN4C)CCN1C (stereo not shown)            MIC         µg/mL          0.78
 4  CN1COc2c(N3CCC(CN)C3)c(F)cc3c(=O)c(C(=O)O)cn1c23 (stereo not shown)            MIC         µg/mL          0.78
 5  COC1CCN(c2c(F)cc3c(=O)c(C(=O)O)cn4c3c2OCN4C)CC1            MIC         µg/mL            25
 6  CN1COc2c(N3CCN(CCO)CC3)c(F)cc3c(=O)c(C(=O)O)cn1c23            MIC         µg/mL          0.78
 7  CN1COc2c(N3CCN(CC(=O)c4ccccc4)CC3)c(F)cc3c(=O)c(C(=O)O)cn1c23            MIC         µg/mL          3.13
 8  C=CCN1CCN(c2c(F)cc3c(=O)c(C(=O)O)cn4c3c2OCN4C)CC1            MIC         µg/mL          1.56
 9  CC(=O)NCC1CCN(c2c(F)cc3c(=O)c(C(=O)O)cn4c3c2OCN4C)C1 (stereo not shown)            MIC         µg/mL          3.13
10  Cc1cn(-c2c(F)cc3c(=O)c(C(=O)O)cn4c3c2OCN4C)cn1            MIC         µg/mL          0.78
11  CN1CCN(c2c(F)cc3c(=O)c(C(=O)O)cn4c3c2OC(CO)N4C)CC1 (stereo not shown)            MIC         µg/mL          12.5
12  CN1COc2c(N3CCN(CC(=O)O)CC3)c(F)cc3c(=O)c(C(=O)O)cn1c23            MIC         µg/mL          0.78
13  CN1COc2c(N3CCC(N)CC3)c(F)cc3c(=O)c(C(=O)O)cn1c23            MIC         µg/mL          1.56
14  CN1CCN(c2c(F)cc3c(=O)c(C(=O)O)cn4c3c2OCN4C)CC1            MIC         µg/mL           0.2
15  CNCC1CCN(c2c(F)cc3c(=O)c(C(=O)O)cn4c3c2OCN4C)C1 (stereo not shown)            MIC         µg/mL          1.56
16  CN1COc2c(N3CCNC(=O)C3)c(F)cc3c(=O)c(C(=O)O)cn1c23            MIC         µg/mL          12.5
17  CCN(C)CC1CCN(c2c(F)cc3c(=O)c(C(=O)O)cn4c3c2OCN4C)C1 (stereo not shown)            MIC         µg/mL          3.13
18  CCNC1CCN(c2c(F)cc3c(=O)c(C(=O)O)cn4c3c2OCN4C)C1 (stereo not shown)            MIC         µg/mL          1.56
